From: ChEMBL document CHEMBL1158529

# Assayed target: UniProtKB Q72547
So basically every entry gets a class from its IC50, ranges being 0 = under 4 µM, 1 = from 4 µM up to 20 µM, 2 = 20 µM and over

[[record]]
compound_string = "O=c1[nH]c(SCCCc2ccccc2)nc(Cc2ccccc2)c1I"
assayed_target = "UniProtKB Q72547"
class_name = 0

[[record]]
compound_string = "Cc1ccccc1CSc1nc(Cc2ccccc2)c(I)c(=O)[nH]1"
assayed_target = "UniProtKB Q72547"
class_name = 1

[[record]]
compound_string = "O=c1cc(Cc2ccccc2)nc(SCCc2ccccc2)[nH]1"
assayed_target = "UniProtKB Q72547"
class_name = 1

[[record]]
compound_string = "COc1cccc(CSc2nc(Cc3ccccc3)c(C)c(=O)[nH]2)c1"
assayed_target = "UniProtKB Q72547"
class_name = 2

[[record]]
compound_string = "O=c1cc(Cc2ccccc2)nc(SCOCc2ccccc2)[nH]1"
assayed_target = "UniProtKB Q72547"
class_name = 1

[[record]]
compound_string = "O=c1[nH]c(SCc2ccc3ccccc3c2)nc(Cc2ccccc2)c1Br"
assayed_target = "UniProtKB Q72547"
class_name = 1

[[record]]
compound_string = "O=c1[nH]c(SCc2ccc3ccccc3c2)nc(Cc2ccccc2)c1I"
assayed_target = "UniProtKB Q72547"
class_name = 0

[[record]]
compound_string = "Cc1cccc(CSc2nc(Cc3ccccc3)cc(=O)[nH]2)c1"
assayed_target = "UniProtKB Q72547"
class_name = 2

[[record]]
compound_string = "CCOCn1c(Cc2ccccc2)c(C(C)C)c(=O)[nH]c1=O"
assayed_target = "UniProtKB Q72547"
class_name = 0

[[record]]
compound_string = "Cc1c(Cc2ccccc2)nc(SCOCc2ccccc2)[nH]c1=O"
assayed_target = "UniProtKB Q72547"
class_name = 1

[[record]]
compound_string = "COc1cccc(CSc2nc(Cc3ccccc3)c(I)c(=O)[nH]2)c1"
assayed_target = "UniProtKB Q72547"
class_name = 1

